Readings of % block, fractalkine induced chemotaxis for the listed binders
- system name: T1, human CX3CR1 (human, UniProt P49238 1-355)
- T1 sequence: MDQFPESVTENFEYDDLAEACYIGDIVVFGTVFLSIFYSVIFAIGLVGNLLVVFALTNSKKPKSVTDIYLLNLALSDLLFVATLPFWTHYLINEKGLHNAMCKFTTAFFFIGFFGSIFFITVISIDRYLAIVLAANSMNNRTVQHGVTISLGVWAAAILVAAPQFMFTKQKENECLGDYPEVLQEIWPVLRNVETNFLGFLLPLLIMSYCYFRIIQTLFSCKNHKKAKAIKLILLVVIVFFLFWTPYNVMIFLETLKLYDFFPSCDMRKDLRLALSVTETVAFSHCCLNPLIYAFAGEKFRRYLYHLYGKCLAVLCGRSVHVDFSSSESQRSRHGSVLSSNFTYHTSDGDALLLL
- method: cell-based or functional assay
The reply should contain only the number, in %.

# count of solved cases: 3
# binder, unit info, % block, fractalkine induced chemotaxis
measured = [
    ("CX3CR1BIIPMP54D8 (VHH, also called 54D08; CX3CR1BII54D08; not shown: C-terminal c-myc and His6 tags) VHH: EVQLVESGGGSVQAGGSLRLSCAASGSIFSSNAMAWYRQAPGKQRDLVAGINSVGITKYADSVKGRFTISRDNAKNTVYLQMNSLKPEDTAVYYCTSDPRRGWDTRYWGQGTLVTVSS", "%", 33),
    ("CX3CR1BIIPMP54G3 (VHH, also called 54G03; not shown: C-terminal c-myc and His6 tags) VHH: EVQLVESGGGSVQAGESLRLSCAASGSIFSSNAMAWYRQAPGKQRDLVALINSVGITKYADSVKGRFTISRDNAKNTVYLQMNSLKPEDTAVYYCTSDPRRGWDTRYWGQGTLVTVSS", "%", 40),
    ("CX3CR1BIIPMP66G01 (VHH, also called CX3CR1BII66G01; not shown: C-terminal c-myc and His6 tags) VHH: EMQLVESGGGSVQAGESLRLSCAASGSIFSSNAMAWYRQAPGKQRDLVALINSVGITKYADSVKGRFTISRDNAKNTVYLQMNSLKPEDTAVYYCTSDGRRGWDTRYWGQGTQVTVSS", "%", 54),
]

Here is the next item to consider.
Looking up CX3CR1BIIPMP18E6 (VHH, family 13; also called 18E06; CX3CR1BII18E06; not shown: C-terminal c-myc and His6 tags) VHH: KVQLVESGGGLVQPGGSLRLSCATSGTIFSNNAMGWYRQAPGKKRDLVASISSSGSTNYADSVKGRFTVSRDNDKNTGYLQMNSLKPEDTGVYYCTLDARRGWNTAYWGQGAQVTVSS , I see its % block, fractalkine induced chemotaxis listed as 17

Origin of values: patent US20130224224A1
